- method_notes: NCI Yeast Anticancer Drug Screen. Data for the rad50 strain (AID 155);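 also: 0% = growth of vehicle-only cultures of the same strain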
- test_settings: S. cerevisiae rad50 strain growth inhibition; at 50.0 µM; hits give high values
About 79,000 compounds went through this panel and 15% of them were active in at least one assay; those are over-represented in the sample as a whole.
parameter: growth inhibition (%)

1. COc1cc([N+](=O)[O-])c(C)cc1Br : 3.55
2. Nc1cc2c3c(cccc3c1)NC2=O : 47.5
3. CCNC(=S)NNC(=O)c1ccc(N=NN(C)C)cc1 : -5.15
4. C=CCCCCCCCCC(=O)NC(C)C(C)(C)C (stereo not drawn) : 29.9
5. CCOC(=O)C(C(=O)OCC)n1c(=O)c2c(ncn2C)n(C)c1=O : 13.2
6. NC(Cc1ccccc1)C(=O)NCC(=O)Oc1ccc([N+](=O)[O-])cc1 (stereo not drawn) : 36.5
7. CC(C)(O)c1cc(=O)n(-c2ccccc2)[nH]1 : -6
8. C=CCCCCCCCCC(=O)OC : -11.8

---

# maps each entry to its growth inhibition
- method_notes: NCI Yeast Anticancer Drug Screen. Data for the rad50 strain (AID 155);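 also: 0% = growth of vehicle-only cultures of the same strain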
- test_settings: S. cerevisiae rad50 strain growth inhibition; at 50.0 µM; hits give high values
This is part of a sample that, as a whole, favours compounds with a hit. Of some 79,000 tested, about 15% had one in any assay.
parameter: growth inhibition (%)

1) O=S(=O)(c1ccc(O)c(Cl)c1)c1ccc(O)c(Cl)c1 : 32.8
2) CCOC(=O)NC(Nc1ccc(C(=O)OCC)cc1)(C(F)(F)F)C(F)(F)F : 0.25
3) CN(/N=C\c1ccc2ccccc2c1)C1=NCCN1 : 5.65

---

- method_notes: NCI Yeast Anticancer Drug Screen. Data for the mlh1 rad18 strain (AID 175)
- test_settings: S. cerevisiae mlh1 rad18 strain growth inhibition; at 50.0 µM; hits give high values
This is part of a sample that, as a whole, favours compounds with a hit. Of some 79,000 tested, about 15% had one in any assay. Activity calls are given as the source filed them. No stated cut-off is given here; in the data, active means growth inhibition above about 70%; inactive means the rest.
parameter: growth inhibition

1. CC1OC(OC2CCC3(C)C(CCC4C3CC(O)C3(C)C(C5=CC(=O)OC5)CCC43O)C2)CC(O)C1OC1CC(O)C(OC2CC(O)C(OC3OC(CO)C(O)C(O)C3O)C(C)O2)C(C)O1 (centres undefined) : 20.1% (inactive)
2. O/N=C(/c1ccccc1)C1CCCCC1 : 10.3% (inactive)
3. COc1ccc(C(O)/C(=C/n2ccnc2)c2ccccc2)cc1OC (centres undefined) : -25.2% (inactive)
4. O=Nc1ccc(Cl)cc1 : 8.45% (inactive)

---

# maps each entry to its growth inhibition
- method_notes: NCI Yeast Anticancer Drug Screen. Data for the sgs1 mgt1 strain (AID 161);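 also: 0% = growth of cultures given vehicle only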
- test_settings: S. cerevisiae sgs1 mgt1 strain, at 50.0 µM, hits give high values
This is part of a sample that, as a whole, favours compounds with a hit. Of some 79,000 tested, about 15% had one in any assay.
parameter: growth inhibition (%)

1. CCCCCCCCCCCCCCCCCCCCCCCCCCCC : -16
2. CCCCCCOC(=O)C[C@H]1C[C@H](C(=O)OCCCCCC)C1(C)C : 1.8
3. O=C(O)/C=C/C(=O)Nc1ccc2c(c1)-c1ccccc1C2=O : 17.9
4. O=C(N/C=C(/c1ccccc1)S(=O)Cc1ccccc1)Nc1ccccc1Cl (centres undefined) : 0.85
5. Cc1ccccc1N=Cc1ccccc1O.[Co] : 27.4
6. OCCOc1ccc2ccccc2c1-c1c(OCCO)ccc2ccccc12 : 98.5
7. Cc1ccc(S(=O)(=O)C(Sc2ccccc2)=S=NC(C)(C)C)cc1 : 89.3
8. CCCCOc1ccc(Br)cc1 : 7.6
9. C/C(=N\NS(=O)(=O)c1ccc(C)cc1)c1c(C)noc1C : 13.3
10. NC(N)=NS(=O)(=O)c1ccc(NC(=O)c2ccc(Cl)c3c(Nc4ccc(S(=O)(=O)N=C(N)N)cc4)c4ccccc4nc23)cc1 : 30.9
11. CCOC(C#CC(C)=O)OCC : 22.9
12. Oc1cncc2ccccc12 : 11.2
13. CCCCc1c[nH]n(C(N)=NCCSCc2nc[nH]c2C)c1=O : -9.95
14. NC(=O)C1CC2CC(Cl)C1C2 (centres undefined) : -18.1
15. COCC(=O)c1ccccc1 : 5.3
16. CC(C)CCCC(C)C1CCC2C3CCC4CC(=O)CCCC4(C)C3CCC12C (centres undefined) : 20.7
17. O=C(O)[C@H](c1ccccc1)[C@@H](C(=O)O)c1ccccc1 : -8.35
18. COc1ccc(C2OCC(c3ccccc3)O2)cc1 (centres undefined) : -18.5
19. CC(C)CCC[C@@H](C)[C@H]1CC[C@@]2(C)[C@@H]3CC[C@@H]4C(=O)CC[C@]4(C)[C@H]3CC[C@]12C : 41.5
20. O=[N+]([O-])c1ccc(Cc2ncnc3c2ncn3C2OC(CO)C(O)C2O)cc1 (centres undefined) : -16.4
21. CC(=O)OCC(OC(C)=O)C(OC(C)=O)C(OC(C)=O)C(OC(C)=O)C(C=O)OC(C)=O (centres undefined) : 11.7
22. CCOC(=O)C1(C)CCC(C(C(=O)O)C(=O)O)CC1=O (centres undefined) : 13.7
23. CCCCc1c(O)c(N=NC(N)=S)c2ccccc2c1O : 36.8
24. CCCC(NC(C)=O)C(=O)O (centres undefined) : 2.8
25. Cc1ccccc1NCS(=O)(=O)O : 13.2
26. CN(C)c1nc2oc(-c3ccccc3)c(-c3ccccc3)c2c2nncn12 : 2.9
27. CC(=O)OC(Cc1ccc2ccccc2n1)(C(F)(F)F)C(F)(F)F : -8.05
28. NC(=O)CC(N)C(N)=O (centres undefined) : -47.8
29. Cc1cccc2nnc(CCCc3nnc4cccc(C)n34)n12 : -22.1
30. CSc1ccc(NC(=O)SCc2ccccc2)cc1 : 1
31. CC1(C)CC(=O)C(CC2=C(N)CC(C)(C)CC2=O)=C(N)C1 : 9.9
32. c1ccc(SC2(Sc3ccccc3)CCCC2)cc1 : -12.2
33. COc1ccc(C)c2c1CCCC2 : -5.05
34. C1CC[N+]2(CC1)CCCCC2 : -0.55
35. CC1=NN(c2ccccc2)C(=O)/C1=C\c1ccc([N+](=O)[O-])cc1 : 28.4
36. CCCC1OC(C2CC=CCC2C)OCC1CC (centres undefined) : 2.95
37. O=C(O)/C1=C/CCC(C(=O)O)CCC1 (centres undefined) : -7.35
38. O=[N+]([O-])c1ccc(N=Nc2c(S(=O)(=O)O)cc3cc(S(=O)(=O)O)ccc3c2O)c([N+](=O)[O-])c1 : 30.9
39. CCN(CC)C(=O)C(C)n1cc(C)c(=O)[nH]c1=O (centres undefined) : -19.9
40. O=C(Nc1ccccc1)OC1C(OC(=O)c2ccccc2)OC(COC(=O)c2ccccc2)C1OC(=O)c1ccccc1 (centres undefined) : 0.25
41. CC(=O)CC(=O)CCCCC(=O)O : -6.55
42. Cn1cc(C(=O)C2CCCCC2)ccc1=O : -2.6
43. CC(C)CC(=O)c1ccc2ccccc2c1O : 6.7
44. Cc1cccc(C(C#N)c2ccc(N)cc2)c1 (centres undefined) : -4.65
45. CC(=O)NCCNC(=O)c1ccc(C)c(OCc2ccccc2)c1[N+](=O)[O-] : -1
46. O=C(NCCCc1ccccc1)Nc1ccccc1 : -8.05
47. CCOC#CCCOCc1ccccc1 : -5.25
48. COC(=O)C1=C(C(=O)OC)C(=Nc2ccccc2)c2ccccc2C1=O : 74.2
49. COc1cccc(N)c1 : -6.65
